test system: CYP3A4&5; assay: CYP inhibition in human liver microsomes, CYP3A4&5 (testosterone); assay type: in vitro ADME; conditions: probe testosterone, substrate testosterone, read-out: CYP3A4&5 testosterone Inh %
Values of inhibition at 10 µM greater than or equal to 20% map to t; values below map to f.

Identify whether the reported inhibition at 10 µM of the following molecule is 20% or greater: Cc1nccn1Cc1ccc(-c2cc(CC(C)C)sc2S(=O)(=O)NC(=O)NCc2ccccc2)cc1 [Example 1]
t

Identify whether the reported inhibition at 10 µM of the following molecule is 20% or greater: Cc1nccn1Cc1ccc(-c2cc(CC(C)C)sc2S(=O)(=O)NC(=O)NCc2ccccn2)cc1F [Example 13]
f

Identify whether the reported inhibition at 10 µM of the following molecule is 20% or greater: Cc1nccn1Cc1ccc(-c2cc(CC(C)C)sc2S(=O)(=O)NC(=O)N(C)Cc2ccccn2)cc1F [Example 17]
f

Identify whether the reported inhibition at 10 µM of the following molecule is 20% or greater: CCc1nccn1Cc1ccc(-c2cc(CC(C)C)sc2S(=O)(=O)NC(=O)NCc2ccccc2)cc1 [Example 6]
f

Identify whether the reported inhibition at 10 µM of the following molecule is 20% or greater: CCCNC(=O)NS(=O)(=O)c1sc(CC(C)C)cc1-c1ccc(Cn2ccnc2CC)c(F)c1.O=C(O)C(F)(F)F [Example 33, trifluoroacetic acid]
f

Identify whether the reported inhibition at 10 µM of the following molecule is 20% or greater: Cc1nccn1Cc1ccc(-c2cc(CC(C)C)sc2S(=O)(=O)NC(=O)NCCCC(F)(F)F)cc1 [Example 5]
f

Identify whether the reported inhibition at 10 µM of the following molecule is 20% or greater: Cc1cn(Cc2ccc(-c3cc(CC(C)C)sc3S(=O)(=O)NC(=O)NCCC(F)(F)F)cc2)c(C)n1 [Example 8]
t

Identify whether the reported inhibition at 10 µM of the following molecule is 20% or greater: Cc1nccn1Cc1ccc(-c2cc(CC(C)C)sc2S(=O)(=O)NC(=O)NCCC(F)(F)F)cc1F [Example 14]
t

Identify whether the reported inhibition at 10 µM of the following molecule is 20% or greater: CCc1nccn1Cc1ccc(-c2cc(CC(C)C)sc2S(=O)(=O)NC(=O)NCCC(F)(F)F)cc1F.O=C(O)C(F)(F)F [Example 30, trifluoroacetic acid]
f

Identify whether the reported inhibition at 10 µM of the following molecule is 20% or greater: Cc1nccn1Cc1ccc(-c2cc(CC(C)C)sc2S(=O)(=O)NC(=O)NCCc2c[nH]cn2)cc1F [Example 16]
t

Identify whether the reported inhibition at 10 µM of the following molecule is 20% or greater: Cc1cn(Cc2ccc(-c3cc(CC(C)C)sc3S(=O)(=O)NC(=O)NCc3ccccn3)cc2)c(C)n1 [Example 11]
f

###

target: CYP2B6 (Homo sapiens, UniProt P20813); construct: incubated with human liver microsomes; tissue Eurofins ITEMG232; host or cells: human liver microsomes; assay: CYP inhibition in human liver microsomes, CYP2B6; assay type: in vitro ADME; details: probe bupropion, substrate bupropion, read-out: CYP2B6 Inh %
Sequence (P20813 whole entry): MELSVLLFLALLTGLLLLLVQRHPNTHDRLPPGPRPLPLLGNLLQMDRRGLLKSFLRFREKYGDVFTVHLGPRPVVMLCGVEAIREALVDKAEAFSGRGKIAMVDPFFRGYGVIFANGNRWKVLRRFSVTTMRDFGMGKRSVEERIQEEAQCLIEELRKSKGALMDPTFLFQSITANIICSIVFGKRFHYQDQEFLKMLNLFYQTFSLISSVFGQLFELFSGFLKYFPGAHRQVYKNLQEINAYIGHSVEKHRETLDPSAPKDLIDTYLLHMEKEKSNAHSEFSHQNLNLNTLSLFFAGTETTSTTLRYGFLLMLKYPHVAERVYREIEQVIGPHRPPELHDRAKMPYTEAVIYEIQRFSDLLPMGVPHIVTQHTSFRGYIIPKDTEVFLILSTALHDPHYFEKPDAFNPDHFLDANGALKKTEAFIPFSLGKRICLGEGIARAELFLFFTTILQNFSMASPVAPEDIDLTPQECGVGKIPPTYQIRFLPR
Provide the recorded inhibition at 10 µM for the entries that follow.
# value in %; strip the unit string

Could you tell me which inhibition at 10 µM is on file for CCCCNC(=O)NS(=O)(=O)c1sc(CC(C)C)cc1-c1ccc(Cn2ccnc2C)cc1 ?
12.7

Could you tell me which inhibition at 10 µM is on file for Cc1nccn1Cc1ccc(-c2cc(CC(C)C)sc2S(=O)(=O)NC(=O)NCc2ccccc2)cc1F ?
33

Could you tell me which inhibition at 10 µM is on file for Cc1nccn1Cc1ccc(-c2cc(CC(C)C)sc2S(=O)(=O)NC(=O)NCc2ccccn2)cc1 ?
8.2

Could you tell me which inhibition at 10 µM is on file for Cc1nccn1Cc1ccc(-c2cc(CC(C)C)sc2S(=O)(=O)NC(=O)NCC2CCC(F)(F)CC2)cc1F.O=C(O)C(F)(F)F ?
54

Could you tell me which inhibition at 10 µM is on file for Cc1nccn1Cc1ccc(-c2cc(CC(C)C)sc2S(=O)(=O)NC(=O)NCCCC(F)(F)F)cc1F ?
59

Could you tell me which inhibition at 10 µM is on file for Cc1nccn1Cc1ccc(-c2cc(CC(C)C)sc2S(=O)(=O)NC(=O)NCc2ccccc2)cc1 ?
19

Could you tell me which inhibition at 10 µM is on file for Cc1nccn1Cc1ccc(-c2cc(CC(C)C)sc2S(=O)(=O)NC(=O)NC(C)c2ccccn2)cc1F (centres unmarked) ?
23

Could you tell me which inhibition at 10 µM is on file for Cc1nccn1Cc1ccc(-c2cc(CC(C)C)sc2S(=O)(=O)NC(=O)NCCCC(F)(F)F)cc1 ?
9.6

Could you tell me which inhibition at 10 µM is on file for CCc1nccn1Cc1ccc(-c2cc(CC(C)C)sc2S(=O)(=O)NC(=O)NCc2ccccc2)cc1 ?
18.1

Could you tell me which inhibition at 10 µM is on file for Cc1nccn1Cc1ccc(-c2cc(CC(C)C)sc2S(=O)(=O)NC(=O)NCCc2c[nH]cn2)cc1F ?
88

Could you tell me which inhibition at 10 µM is on file for CCCNC(=O)NS(=O)(=O)c1sc(CC(C)C)cc1-c1ccc(Cn2ccnc2CC)c(F)c1.O=C(O)C(F)(F)F ?
37

Could you tell me which inhibition at 10 µM is on file for CC(C)Cc1cc(-c2ccc(Cn3ccnc3C(C)C)c(F)c2)c(S(=O)(=O)NC(=O)NCCC(F)(F)F)s1.O=C(O)C(F)(F)F ?
30

Could you tell me which inhibition at 10 µM is on file for Cc1nccn1Cc1ccc(-c2cc(CC(C)C)sc2S(=O)(=O)NC(=O)NCc2nccn2C)cc1F ?
63

Could you tell me which inhibition at 10 µM is on file for Cc1cn(Cc2ccc(-c3cc(CC(C)C)sc3S(=O)(=O)NC(=O)NCCC(F)(F)F)cc2)c(C)n1 ?
18.8

Attribution: patent US12435072B2
